// data source = PubChem BioAssay (NCATS)

# experiment.description: qHTS profiling of the MIPE4 collection as inhibitors of Plasmodium falciparum (DD2) proliferation (AID 743345)
# condition: P. falciparum Dd2 in erythrocytes, SYBR Green DNA, 72 h; at 28.5 µM (top of the series) unless noted
measured.quantity: parasite growth remaining, % of DMSO control (lower = more inhibition) (%)
Numbers only, in %.

Some solved entries appear below for comparison.
compound: CCc1c(C(=O)C(N)=O)c2c(OCC(=O)O)cccc2n1Cc1ccccc1
quantitative.readout: 97.5
//
compound: COc1cc([C@@H]2c3cc4c(cc3[C@@H](O)C3COC(=O)C32)OCO4)cc(OC)c1O (some centres undefined)
quantitative.readout: 88.5
//
compound: C=CCON=C(C[C@H]1O[C@@H]2O[C@]3(C)CC[C@@H]4[C@H](C)CC[C@@H]([C@H]1C)[C@@]24OO3)[C@H]1O[C@@H]2O[C@]3(C)CC[C@H]4[C@H](C)CC[C@@H]([C@@H]1C)[C@@]24OO3
quantitative.readout: 7.38

Record parasite growth remaining, % of DMSO control (lower = more inhibition) per entry; entries follow.
1. NC1=NC(=O)N2CC12 (centres undefined)
2. CC1=NN=C(c2ccc(N)cc2)c2cc3c(cc2C1)OCO3
3. C[C@@H]1CC[C@H]2[C@@H](C)C(=O)O[C@@H]3O[C@@]4(C)CC[C@H]1[C@]32OO4
4. COc1ccc(CC2NCCc3cc(OC)c(OC)cc32)cc1OC (centres undefined)
5. C[C@]12CC[C@H]3[C@@H](CCC4=CC(=O)CC[C@@]43C)[C@H]1CC[C@H]2OC(=O)CCC1CCCC1
6. O=C(O)c1ccc(O)c2ncc(N3CCOCC3)cc12

A:
1: 93.9; 2: 108; 3: 7.95; 4: 85.6; 5: 15.6; 6: 37

----------
# experiment.description: Quantitative High-Throughput drug screen in 47 multiple myeloma cell lines against the NCATS MIPE library collection: JIM3_ECACC cell viability assay (AID 1918963; note: nearly all actives have a fitted effect of over 35% in size)
# condition: JIM3 myeloma viability, CellTiter-Glo ATP, 48 h; series mostly up to 45.8 µM
Results filed as inconclusive are left out. Activity calls are given as the source filed them. Calls come from the whole dose curve; as a rule, active = well fitted cell-killing curve with a large enough effect; inconclusive = small, poorly fitted or top-dose-only effect; inactive = no such curve, though single readings can be large or run the other way.
// allowed return values: 1 for active, -1 for inactive

Use the examples below as a reference point.
compound: C=C[C@@H]1CN2CCC1C[C@H]2[C@H](O)c1ccnc2ccccc12 (some centres undefined)
class.assignment: 1

compound: C[C@@H]1O[C@@H](O[C@@H]2C=C3CC[C@@H]4[C@@H](CC[C@]5(C)[C@H](c6ccc(=O)oc6)CC[C@@]45O)[C@@]3(C)CC2)[C@H](O)[C@H](O)[C@H]1O
class.assignment: 1

compound: C#C[C@]1(O)C=C[C@@H]2[C@@H]3CCC4=CC(=O)CC[C@@H]4[C@H]3CC[C@@]21CC
class.assignment: -1

API: the following record is the query input.
Q: Which outcome did this test record for the compound C[C@H]1CCCC=CC2C[C@H](O)C[C@@H]2[C@H](O)C=CC(=O)O1 (some centres undefined) ?
A: -1

----------
# experiment.description: Quantitative High-Throughput drug screen in 47 multiple myeloma cell lines against the NCATS MIPE library collection: KHM11_PLB cell viability assay (AID 1918962); note: nearly all actives have a fitted effect of over 35% in size
# condition: KHM11 myeloma cell viability, CellTiter-Glo ATP luminescence, 48 h; series mostly up to 45.8 µM
Records with an inconclusive call do not appear. Active and inactive are the calls of the source. The call rests on the fitted dose curve; in most records, active means well fitted cell-killing curve with a large enough effect; inconclusive means small, poorly fitted or top-dose-only effect, or effect the other way; inactive means no such curve, though single readings can be large or run the other way.
Respond with a class label; see active, inactive

compound: CC(N[C@H]1C[C@H]1c1ccccc1)c1ccc2c(c1)OCCO2 (stereo partly drawn)
class.assignment: inactive

Q: Could you please tell me the result logged for `O=c1cccc2n1CC1CNC[C@H]2C1` in this assay?
A: inactive

Q: Recorded test call requested for `CN1CCN(c2ccc([N+](=O)[O-])c3no[n+]([O-])c23)CC1`
A: active

----------
# experiment.description: P-glycoprotein substrates identified in KB-8-5-11 adenocarcinoma cell line, qHTS therapeutic library screen (AID 1346987); note: nearly all actives have a fitted effect of over 65% in size
# condition: KB-8-5-11 (P-gp overexpressing) viability, CellTiter-Glo, 72 h; series mostly up to 44.5 µM
Results filed as inconclusive are left out. Active and inactive are the calls of the source. The call rests on the fitted dose curve; in most records, active means well fitted inhibition curve with a large enough effect; inconclusive means small, poorly fitted or top-dose-only effect; inactive means flat fitted curve, though single readings scatter.
Returns: one label drawn from active, inactive

Example entries and their recorded answers appear below.
molecule: CCOC(=O)c1c(C(C#N)=CN)c2ccc(Cl)c(Cl)c2n1C
class.assignment: inactive

molecule: C[C@]12COC(=O)C[C@@H]1CC[C@@H]1[C@H]2CC[C@@]2(C)[C@H]1CC[C@]2(C)O
class.assignment: inactive

molecule: CCOC(=O)c1cncn1[C@H](C)c1ccccc1
class.assignment: inactive

molecule: Oc1ccc2c3c1O[C@H]1c4[nH]c5c(c4C[C@@]4(O)[C@@H](C2)N(CC2CC2)CC[C@]314)C[C@@]1(O)[C@H]2Cc3ccc(O)c4c3[C@@]1(CCN2CC1CC1)[C@H]5O4
class.assignment: inactive

molecule: O=C(Oc1ccc([N+](=O)[O-])cc1)N1CCN(Cc2cccc(Oc3ccccc3)c2)CC1
class.assignment: inactive

Q: Hi, sorry to bother you, what did the test record for `CC(=O)NCCc1c[nH]c2ccccc12` ?
A: inactive

Q: Just curious, what result did `CC(C)(O)C(=O)Nc1ccc([N+](=O)[O-])c(C(F)(F)F)c1` get here?
A: inactive

Q: Record lookup: outcome of this test for COc1ccc(CC2NCCc3cc(OC)c(OC)cc32)cc1OC (stereo not given) ?
A: inactive

Q: Query: recorded result category for `C[C@@]12OC(=O)[C@]1([C@@H](O)[C@@H]1C=CCCC1)NC(=O)[C@H]2CCCl` in this test
A: active

Q: What was the test verdict on `CCN(CC)C(=O)c1ccc(C2=CC3(CCNCC3)Oc3cccc(O)c32)cc1` ?
A: inactive

----------
# experiment.description: qHTS of pediatric cancer cell lines to identify multiple opportunities for drug repurposing: Primary screen for OHS-50 cells (AID 1347103); note: nearly all actives have a fitted effect of over 40% in size
# condition: OHS-50 osteosarcoma viability, CellTiter-Glo luminescence, 48 h; series mostly up to 57.3 µM
Inconclusive results are not listed. The source made the active and inactive calls. Calls follow the shape of the dose curve; as a rule, active = well fitted cell-killing curve with a large enough effect; inconclusive = small, poorly fitted or top-dose-only effect; inactive = no such curve, though single readings can be large or run the other way.
Respond with a class label; see Y (active), N (inactive)

compound: CCC(=O)O[C@@H]1C=C2CCC3C(CCC4(C)C3CC[C@@H]4OC(=O)CC)C2CC1 (stereo partly drawn)
class.assignment: N
--
compound: c1cc2ccc3cccc4ccc(c1)c2c34
class.assignment: N
--
compound: COc1ccc2c(c[n+](C)c3c4cc5c(cc4ccc23)OCO5)c1OC
class.assignment: Y
--
compound: O=c1[nH]c2ccc(Cl)cc2c(N[C@@H]2CN3CCC2CC3)c1-c1nc2ccccc2[nH]1
class.assignment: Y

Q: What is the recorded call for this compound in the test? `CC(=Cc1csc(C)n1)[C@@H]1C[C@H]2O[C@@H]2CCC[C@H](C)[C@@H](O)[C@@H](C)C(=O)C(C)(C)[C@@H](O)CC(=O)O1`
A: Y

Q: Tell me the assay call for CN1[C@H]2CC(O)C[C@H]1[C@H]1O[C@H]12 (stereo partly drawn) please.
A: Y

Q: Given `C[C@@H]1[C@H](O)[C@@H](C)C=CC=CCCC=CC=CC=CC=C[C@H](O[C@H]2O[C@@H](C)[C@H](O)[C@@H](N)[C@@H]2O)CC2O[C@](O)(C[C@@H](O)[C@H](O)CC[C@@H](O)C[C@@H](O)C[C@@H](O)CC(=O)O[C@H]1C)C[C@H](O)[C@H]2C(=O)O` , state the outcome it received in this test.
A: N

Q: How did this test come out for `C1CCC(NC2CCCCC2)CC1` ?
A: N

----------
# experiment.description: Immunotoxin (SS1P) sensitization/mitigation study. Vehicle arm (DMEM) (AID 1159513)
# condition: cell viability with vehicle (DMEM); series mostly up to 46.1 µM
Calls of active or inactive are those of the source. How the calls were made is not given here.
Give your call using only these classes: Y (active), N (inactive)

These solved cases illustrate the format of a correct answer.
molecule: Cc1cnc(Nc2ccc(F)cc2Cl)nc1-c1c[nH]c(C(=O)N[C@H](CO)c2cccc(Cl)c2)c1
class.assignment: Y
--
molecule: Cc1cc(Nc2cc(N3CCN(C)CC3)nc(Sc3ccc(NC(=O)C4CC4)cc3)n2)n[nH]1
class.assignment: Y
--
molecule: CS(=O)(=O)Oc1ccc2c(NC(N)=O)c(C(=O)c3ccc(Cl)cc3Cl)oc2c1
class.assignment: N
--
molecule: CC(C)(Sc1ccc(CCN(CCCCC2CCCCC2)C(=O)NC2CCCCC2)cc1)C(=O)O
class.assignment: N
--
molecule: COc1cc(Oc2ccnc3cc(OC)c(OC)cc23)ccc1NC(=O)NC(C)c1nccs1 (centres undefined)
class.assignment: Y

Q: What outcome does the record of this test show for `CC(=O)OCC(=O)[C@@]1(O)[C@H](C)C[C@H]2[C@@H]3C=C(C)C4=Cc5c(cnn5-c5ccccc5)C[C@]4(C)[C@@H]3[C@@H](O)C[C@@]21C` ?
A: Y

Q: What was the test verdict on `Cc1ccc(S(=O)(=O)Nc2cc(Cl)ccc2C(=O)Nc2nc(-c3ccccc3)cs2)cc1` ?
A: Y

Q: How did this test come out for `Nc1ccccc1NC(=O)c1ccc(CNc2nccc(-c3cccnc3)n2)cc1` ?
A: Y

Q: Please state the recorded outcome for this molecule: `Cc1ccc(C(=O)Nc2ccc(CN3CCN(C)CC3)c(C(F)(F)F)c2)cc1C#Cc1cnc2cccnn12`
A: Y

Q: Given `Cc1nc2cnc3ccc(C#Cc4cccnc4)cc3c2n1-c1ccc(C(C)(C)C#N)cc1` , state the outcome it received in this test.
A: Y
